- protocol-details: PK after subcutaneous administration of solutions in rats
- Type: in vivo, Wistar Han rat
- condition-notes: Wistar Han, rat, plasma, sc, 50 mg/kg, rat; SC 50 mg/kg; 400 mg/mL solution in 10% ethanol, 13% water, 77% PEG 200; mean ± SD, n=3; read-out: C84d
measurement-kind: concentration at 84 d (nM)

{"columns": ["sample-smiles", "quantitative-result"],
 "data": [
  ["CC(C)(C#Cc1ccc(-c2ccc(Cl)c3c(NS(C)(=O)=O)nn(CC(F)(F)F)c23)c([C@H](Cc2cc(F)cc(F)c2)NC(=O)Cn2nc(C(F)(F)F)c3c2C(F)(F)[C@@H]2C[C@H]32)n1)S(C)(=O)=O", 162]
]}

---

- protocol-details: PK after subcutaneous administration of solutions in rats
- Format: in vivo, Wistar Han rat
- condition-notes: male, Wistar Han, rat, plasma, sc, 50 mg/kg, rat #3; 1680 h; SC 50 mg/kg, 300 mg/mL in 15% water/85% PEG 300

{"columns": ["molecule", "concentration at 1680 h"],
 "data": [
  ["CC(C)(C#Cc1ccc(-c2ccc(Cl)c3c(NS(C)(=O)=O)nn(CC(F)(F)F)c23)c([C@H](Cc2cc(F)cc(F)c2)NC(=O)Cn2nc(C(F)(F)F)c3c2C(F)(F)[C@@H]2C[C@H]32)n1)S(C)(=O)=O [Formula (Ia)]", "200 nM"]
]}

---

- protocol-details: PK after subcutaneous administration of solutions in rats
- Assay type: in vivo, Wistar Han rat
- condition-notes: male, Wistar Han, rat, plasma, sc, 50 mg/kg, rat #1; 168 h; SC 50 mg/kg, 300 mg/mL in 15% water/85% PEG 300

{"columns": ["sample-smiles", "unit-text", "concentration at 168 h"],
 "data": [
  ["CC(C)(C#Cc1ccc(-c2ccc(Cl)c3c(NS(C)(=O)=O)nn(CC(F)(F)F)c23)c([C@H](Cc2cc(F)cc(F)c2)NC(=O)Cn2nc(C(F)(F)F)c3c2C(F)(F)[C@@H]2C[C@H]32)n1)S(C)(=O)=O", "nM", 143]
]}

---

- protocol-details: Plasma PK after single oral administration in solution, cynomolgus monkey
- Format: in vivo
- condition-notes: male, plasma, single oral 4.0 mg/kg, solution in 5% ethanol/20% propylene glycol/45% PEG 300/30% 0.01 N HCl, mean ± SD, n=3
- Protocol: An oral formulation containing a compound of Formula (Ia) in […], 20% propylene glycol, 45 PEG 300, and 30% 0.01 N HCl was prepared. The formulation was orally administered to male rat, dog, cynomolgus monkey, and rhesus monkey according to the doses shown in Table 8 below.

{"columns": ["compound", "Cmax (µM)"],
 "data": [
  ["CC(C)(C#Cc1ccc(-c2ccc(Cl)c3c(NS(C)(=O)=O)nn(CC(F)(F)F)c23)c([C@H](Cc2cc(F)cc(F)c2)NC(=O)Cn2nc(C(F)(F)F)c3c2C(F)(F)[C@@H]2C[C@H]32)n1)S(C)(=O)=O [Formula (Ia)]", 17.7]
]}

---

- protocol-details: PK after subcutaneous administration of solutions in dogs
- Type: in vivo, Beagle dog
- condition-notes: beagle, dog, plasma, sc, 6 mg/kg, dog; SC 6 mg/kg; 75 mg/mL solution (w/w %: 29.21 water, 62.55 PEG 300, 6.97 sodium salt of Formula (Ia), 1.68 poloxamer 188); mean ± SD, n=3; read-out: AUC0-28d
measurement-kind: AUC(0-t) (µM·h)

{"columns": ["compound", "quantitative-result"],
 "data": [
  ["CC(C)(C#Cc1ccc(-c2ccc(Cl)c3c(NS(C)(=O)=O)nn(CC(F)(F)F)c23)c([C@H](Cc2cc(F)cc(F)c2)NC(=O)Cn2nc(C(F)(F)F)c3c2C(F)(F)[C@@H]2C[C@H]32)n1)S(C)(=O)=O [Formula (Ia)]", 101]
]}
